The measurements presented in this section are drawn from the supplement of paper PMC11908140.

B1: library; numbered along this chain (parent)
chain: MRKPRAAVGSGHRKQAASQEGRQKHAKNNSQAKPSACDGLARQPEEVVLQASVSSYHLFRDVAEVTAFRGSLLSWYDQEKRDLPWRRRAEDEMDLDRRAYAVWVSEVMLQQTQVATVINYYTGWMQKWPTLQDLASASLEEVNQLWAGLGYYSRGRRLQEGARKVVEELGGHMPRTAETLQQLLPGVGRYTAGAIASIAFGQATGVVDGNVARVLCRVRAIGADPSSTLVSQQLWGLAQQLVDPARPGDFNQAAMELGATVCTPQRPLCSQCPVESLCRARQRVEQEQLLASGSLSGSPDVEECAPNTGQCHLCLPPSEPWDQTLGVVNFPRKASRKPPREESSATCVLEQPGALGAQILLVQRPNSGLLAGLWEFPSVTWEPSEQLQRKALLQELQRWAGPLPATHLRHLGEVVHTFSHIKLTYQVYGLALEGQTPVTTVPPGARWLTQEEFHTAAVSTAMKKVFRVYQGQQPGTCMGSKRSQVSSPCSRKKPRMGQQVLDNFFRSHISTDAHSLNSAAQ

Variants of: B1
ASSAY COMMENT: 8OG:A repair function score (normalized; synonymous = 0, nonsense = -1) (normalized log-likelihood score); higher = more repair activity (WT-like);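 further: cells sorted at 72 h after reporter transfection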
CONDITION: with 8OG:A DNA repair reporter (GFP) in HEK-293 MUTYH KO cells
ASSAY READOUT: 8OG:A repair function score

Reference set (5 entries):
- MUTATION LIST: "N251H"
  ASSAY READOUT: "8OG:A repair function score"
  OBSERVED MEASUREMENT: -0.943
- MUTATION LIST: "T476Y"
  ASSAY READOUT: "8OG:A repair function score"
  OBSERVED MEASUREMENT: -0.0187
- MUTATION LIST: "S515R"
  ASSAY READOUT: "8OG:A repair function score"
  OBSERVED MEASUREMENT: 0.00703
- MUTATION LIST: "G326N"
  ASSAY READOUT: "8OG:A repair function score"
  OBSERVED MEASUREMENT: -0.0169
- MUTATION LIST: "P402T"
  ASSAY READOUT: "8OG:A repair function score"
  OBSERVED MEASUREMENT: -0.26

I have 3 variants here; please give me 8OG:A repair function score for each one.
1. P264Y
2. V465Q
3. K80T

1. -0.087
2. -1.17
3. -0.469

I have 5 variants here; please give me 8OG:A repair function score for each one.
1. I221A
2. E287Y
3. K481Q
4. K464R
5. A137K

[-0.993, -0.00218, -0.00252, -0.123, -0.626]

I have 7 variants here; please give me 8OG:A repair function score for each one.
1. A354V
2. P273S
3. W374M
4. V458C
5. F418I
6. G201T
7. E451K

[0.0356, -0.426, 0.217, -0.27, 0.255, -0.23, -0.241]

I have 2 variants here; please give me 8OG:A repair function score for each one.
1. K127T
2. R217F

-0.072
-1.04
